- target-entity: TDP-43 (Homo sapiens, UniProt Q13148 1-414)
- Sequence (Q13148 whole entry): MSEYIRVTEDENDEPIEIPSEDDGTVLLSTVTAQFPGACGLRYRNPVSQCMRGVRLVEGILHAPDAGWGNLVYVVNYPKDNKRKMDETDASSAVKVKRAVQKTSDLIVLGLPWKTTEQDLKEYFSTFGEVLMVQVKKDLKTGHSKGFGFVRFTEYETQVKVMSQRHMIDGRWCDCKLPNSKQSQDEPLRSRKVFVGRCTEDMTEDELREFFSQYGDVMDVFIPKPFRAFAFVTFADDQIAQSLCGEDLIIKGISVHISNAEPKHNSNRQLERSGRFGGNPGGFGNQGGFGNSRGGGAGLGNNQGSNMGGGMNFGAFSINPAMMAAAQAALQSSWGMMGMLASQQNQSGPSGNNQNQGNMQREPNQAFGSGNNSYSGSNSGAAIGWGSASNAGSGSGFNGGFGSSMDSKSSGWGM
- method-description: RNA Bind-n-Seq with designed 260-mer pool; 25 mM Tris-HCl, 150 mM KCl, 3 mM MgCl2, BSA (printed 500 mg/mL), 20 units/mL SUPERase IN; pH not stated; 500 nM RNA pool, 1 h, 4 C; TDP-43 5, 50, 500 nM; high values mean tight binding
- particulars: protein: recombinant; tags: SBP (GST cleaved off with PreScission; pGEX-GST-SBP)
Whole data set: some 9,900 sequences, median “r (bound/input frequency ratio)” near 0.7, cut for the highest 2% near 6.5. Shown is part of a subset that was picked to be rich in the highest values.
measurement-type: binding signal

Could you share which binding signal value was measured for ENSMUSG00000042529.422|Kcnj12 (ssRNA) RNA: GGGAGUUCUACAGUCCGACGAUCGCUUCGAUAUCCGCAUGCUAACAUGUGUGAGGGUGUGGAGGUCCCAGGGUGUGUGUAUGUGAAUGUCAGUGGCUUGGGUGCUGUGUGGAGAGAGAGAGAGAGAGAGAGAGAGAGAGAGAGAGAGAGAGAGAGAGAGAGCUGCACAGGAUGAAGCAGCUGCCCUGAGCCCAUCUGGUGCUGUGCACCUGGUCCUUGUCCAGCCGAGGGCCUGGGGGCAGAAGAACACACCAUAGGGAGGCCCUUGUAUGGGUGUCUGCCCUAUGUGAGGUCAUAGAAUGUUCUCUUGCGGUCGCACUAGUGUGGAAUUCUCGGGUGUCAAGG ? 6.32 R (bound/input frequency ratio)

Now this one: ENSMUSG00000042529.416|Kcnj12 (ssRNA) RNA: GGGAGUUCUACAGUCCGACGAUCGCUUCGAUAUCCGCAUGCUAGUGUGUGUGUGUGUGUGUGUGUGUGUGUGUGUGUGAACAUGUGUGAGGGUGUGGAGGUCCCAGGGUGUGUGUAUGUGAAUGUCAGUGGCUUGGGUGCUGUGUGGAGAGAGAGAGAGAGAGAGAGAGAGAGAGAGAGAGAGAGAGAGAGAGAGAGCUGCACAGGAUGAAGCAGCUGCCCUGAGCCCAUCUGGUGCUGUGCACCUGGUCCUUGUCCAGCCGAGGGCCUGGGGGCAGAAGAACACACCAUAGGGAGGCCCUUGCUCUUGCGGUCGCACUAGUGUGGAAUUCUCGGGUGUCAAGG 6.11 R (bound/input frequency ratio)

Try the binder ENSMUSG00000042529.424|Kcnj12 (ssRNA) RNA: GGGAGUUCUACAGUCCGACGAUCGCUUCGAUAUCCGCAUGCUAGUGUGGAGGUCCCAGGGUGUGUGUAUGUGAAUGUCAGUGGCUUGGGUGCUGUGUGGAGAGAGAGAGAGAGAGAGAGAGAGAGAGAGAGAGAGAGAGAGAGAGAGAGCUGCACAGGAUGAAGCAGCUGCCCUGAGCCCAUCUGGUGCUGUGCACCUGGUCCUUGUCCAGCCGAGGGCCUGGGGGCAGAAGAACACACCAUAGGGAGGCCCUUGUAUGGGUGUCUGCCCUAUGUGAGGUCAUAGAAUGUUAAAUCUAUUUUACUCUUGCGGUCGCACUAGUGUGGAAUUCUCGGGUGUCAAGG 5.67 R (bound/input frequency ratio)

Next binder: ENSMUSG00000061578.833|Ksr2 (ssRNA) RNA: GGGAGUUCUACAGUCCGACGAUCGCUUCGAUAUCCGCAUGCUACUCACAGUUUCAAAGGGCUCAGUCCAUAGCUGCCUGACUCUGUGUUUCUAGGCCUUUCUUGAGGCAAGUGUUCAUCAUGAUAGUGUGAGGGUGAGGAGGAGUUUCUUCAUGGCAAACAGGAAGCAAAGAGCAAUACAGGAAAAGGUCAGGGGUGAGAUGUGUCAUUGCCACUUCCUCCAGCUAGGACCUUUGAGCAUCACAUUGUGAAGCCAUCCAGGGACUUGGGGGUUAGGUCAGAGGUAUCAAUACAUCUCCGGAAACUCUUGCGGUCGCACUAGUGUGGAAUUCUCGGGUGUCAAGG 1.23 R (bound/input frequency ratio)

Repeat with ENSMUSG00000042529.417|Kcnj12 (ssRNA) RNA: GGGAGUUCUACAGUCCGACGAUCGCUUCGAUAUCCGCAUGCUAGUGUGUGUGUGUGUGUGUGUGUGUGUGUGAACAUGUGUGAGGGUGUGGAGGUCCCAGGGUGUGUGUAUGUGAAUGUCAGUGGCUUGGGUGCUGUGUGGAGAGAGAGAGAGAGAGAGAGAGAGAGAGAGAGAGAGAGAGAGAGAGAGAGCUGCACAGGAUGAAGCAGCUGCCCUGAGCCCAUCUGGUGCUGUGCACCUGGUCCUUGUCCAGCCGAGGGCCUGGGGGCAGAAGAACACACCAUAGGGAGGCCCUUGUAUGGGCUCUUGCGGUCGCACUAGUGUGGAAUUCUCGGGUGUCAAGG 5.22 R (bound/input frequency ratio)

Also ENSMUSG00000042529.421|Kcnj12 (ssRNA) RNA: GGGAGUUCUACAGUCCGACGAUCGCUUCGAUAUCCGCAUGCUAGUGUGAACAUGUGUGAGGGUGUGGAGGUCCCAGGGUGUGUGUAUGUGAAUGUCAGUGGCUUGGGUGCUGUGUGGAGAGAGAGAGAGAGAGAGAGAGAGAGAGAGAGAGAGAGAGAGAGAGAGAGCUGCACAGGAUGAAGCAGCUGCCCUGAGCCCAUCUGGUGCUGUGCACCUGGUCCUUGUCCAGCCGAGGGCCUGGGGGCAGAAGAACACACCAUAGGGAGGCCCUUGUAUGGGUGUCUGCCCUAUGUGAGGUCAUAGCUCUUGCGGUCGCACUAGUGUGGAAUUCUCGGGUGUCAAGG , if possible. 6.04 R (bound/input frequency ratio)

Okay, and ENSMUSG00000042529.420|Kcnj12 (ssRNA) RNA: GGGAGUUCUACAGUCCGACGAUCGCUUCGAUAUCCGCAUGCUAGUGUGUGUGUGAACAUGUGUGAGGGUGUGGAGGUCCCAGGGUGUGUGUAUGUGAAUGUCAGUGGCUUGGGUGCUGUGUGGAGAGAGAGAGAGAGAGAGAGAGAGAGAGAGAGAGAGAGAGAGAGAGAGAGCUGCACAGGAUGAAGCAGCUGCCCUGAGCCCAUCUGGUGCUGUGCACCUGGUCCUUGUCCAGCCGAGGGCCUGGGGGCAGAAGAACACACCAUAGGGAGGCCCUUGUAUGGGUGUCUGCCCUAUGUGAGGCUCUUGCGGUCGCACUAGUGUGGAAUUCUCGGGUGUCAAGG ? 6.59 R (bound/input frequency ratio)
